Below is a list of entries, each paired with its recorded solubility kinetic value.
- assay.overview: Kinetic solubility in PBS at pH 7.4
- Format: physicochemical
- measurement.context: read-out: Kinetic_solubility

For orientation, consider the following solved cases.
1) C[C@H](c1c[nH]c(=O)c2cc(F)c(F)cc12)N(C)C(=O)c1cc2ccc(F)cc2[nH]1: 12 µM
2) C[C@H](c1c[nH]c(=O)c2cc(F)c(F)cc12)N(C)C(=O)Nc1ccc(F)c(C#N)c1: 120 µM
3) COc1ccc2c([C@@H](C)N(C)C(=O)Nc3ccc(F)c(Cl)c3)c[nH]c(=O)c2c1: < 4 µM
4) C[C@H](c1c[nH]c(=O)c2cc(F)c(F)cc12)N(C)C(=O)Nc1cccc(F)c1: > 200 µM
5) C[C@H](c1c[nH]c(=O)c2cc(F)c(F)cc12)N(C)C(=O)Nc1ccc(F)cc1: 190 µM

// Input: C[C@H](c1c[nH]c(=O)c2ccc(Cl)cc12)N(C)C(=O)Nc1ccc(F)c(Cl)c1 . Output its solubility kinetic only.
18 µM

// Input: C[C@H](c1c[nH]c(=O)c2c(Cl)cccc12)N(C)C(=O)Nc1ccc(F)c(Cl)c1 . Output its solubility kinetic only.
< 4 µM

// Input: C[C@H](c1c[nH]c(=O)c2c(F)c(F)ccc12)N(C)C(=O)Nc1ccc(F)c(Cl)c1 . Output its solubility kinetic only.
92 µM

====

- assay.overview: Kinetic solubility in PBS at pH 7.4
- Format: physicochemical
- measurement.context: read-out: Kinetic_solubility
observable: solubility kinetic (µM)
Lab book: enter the figure in µM, no units written.

For orientation, consider the following solved cases.
1. C[C@H](c1c[nH]c(=O)c2cc(F)c(F)cc12)N(C)C(=O)Nc1cccc(Cl)c1: 72
2. C[C@H](c1c[nH]c(=O)c2cc(F)c(F)cc12)N(C)C(=O)[C@@H]1Cc2ccccc2N1: 62

Consider now this further compound.
// Input: C[C@H](c1c[nH]c(=O)c2c(F)cc(F)cc12)N(C)C(=O)Nc1ccc(F)c(Cl)c1 . Output its solubility kinetic only.
97

====

- assay.overview: Kinetic solubility in PBS at pH 7.4
- Format: physicochemical
- measurement.context: read-out: Kinetic_solubility
observable: solubility kinetic

For orientation, consider the following solved cases.
1) C[C@H](c1c[nH]c(=O)c2cc(F)c(F)cc12)N(C)C(=O)c1cc2ccccc2[nH]1: < 4 µM
2) C[C@H](c1c[nH]c(=O)c2ccc(F)cc12)N(C)C(=O)Nc1ccc(F)c(Cl)c1: 82 µM
3) COc1ccc2c(=O)[nH]cc([C@@H](C)N(C)C(=O)Nc3ccc(F)c(Cl)c3)c2c1: 42 µM

// Input: C[C@H](c1c[nH]c(=O)c2cc(F)ccc12)N(C)C(=O)Nc1ccc(F)c(Cl)c1 . Output its solubility kinetic only.
98 µM

// Input: CC(c1c[nH]c(=O)c2ccccc12)N(C)C(=O)Nc1ccc(F)c(Cl)c1 (stereo not given) . Output its solubility kinetic only.
135 µM

// Input: C[C@H](c1c[nH]c(=O)c2cc(F)c(F)cc12)N(C)C(=O)Nc1ccc(F)c(Cl)c1 . Output its solubility kinetic only.
42 µM

// Input: C[C@H](c1c[nH]c(=O)c2cc(F)c(F)cc12)N(C)C(=O)c1cc2cc(F)c(F)cc2[nH]1 . Output its solubility kinetic only.
5 µM

// Input: C[C@H](c1c[nH]c(=O)c2cc(F)c(F)cc12)N(C)C(=O)Nc1ccc(F)c(F)c1 . Output its solubility kinetic only.
179 µM

// Input: C[C@H](c1c[nH]c(=O)c2c(F)cccc12)N(C)C(=O)Nc1ccc(F)c(Cl)c1 . Output its solubility kinetic only.
146 µM

// Input: Cc1cc(NC(=O)N(C)[C@H](C)c2c[nH]c(=O)c3cc(F)c(F)cc23)ccc1F . Output its solubility kinetic only.
95 µM
